- SYSTEM TESTED: human mGlu5 (Homo sapiens, UniProt P41594)
- Construct: expressed in transfected cells
- Sequence (P41594 21-1212): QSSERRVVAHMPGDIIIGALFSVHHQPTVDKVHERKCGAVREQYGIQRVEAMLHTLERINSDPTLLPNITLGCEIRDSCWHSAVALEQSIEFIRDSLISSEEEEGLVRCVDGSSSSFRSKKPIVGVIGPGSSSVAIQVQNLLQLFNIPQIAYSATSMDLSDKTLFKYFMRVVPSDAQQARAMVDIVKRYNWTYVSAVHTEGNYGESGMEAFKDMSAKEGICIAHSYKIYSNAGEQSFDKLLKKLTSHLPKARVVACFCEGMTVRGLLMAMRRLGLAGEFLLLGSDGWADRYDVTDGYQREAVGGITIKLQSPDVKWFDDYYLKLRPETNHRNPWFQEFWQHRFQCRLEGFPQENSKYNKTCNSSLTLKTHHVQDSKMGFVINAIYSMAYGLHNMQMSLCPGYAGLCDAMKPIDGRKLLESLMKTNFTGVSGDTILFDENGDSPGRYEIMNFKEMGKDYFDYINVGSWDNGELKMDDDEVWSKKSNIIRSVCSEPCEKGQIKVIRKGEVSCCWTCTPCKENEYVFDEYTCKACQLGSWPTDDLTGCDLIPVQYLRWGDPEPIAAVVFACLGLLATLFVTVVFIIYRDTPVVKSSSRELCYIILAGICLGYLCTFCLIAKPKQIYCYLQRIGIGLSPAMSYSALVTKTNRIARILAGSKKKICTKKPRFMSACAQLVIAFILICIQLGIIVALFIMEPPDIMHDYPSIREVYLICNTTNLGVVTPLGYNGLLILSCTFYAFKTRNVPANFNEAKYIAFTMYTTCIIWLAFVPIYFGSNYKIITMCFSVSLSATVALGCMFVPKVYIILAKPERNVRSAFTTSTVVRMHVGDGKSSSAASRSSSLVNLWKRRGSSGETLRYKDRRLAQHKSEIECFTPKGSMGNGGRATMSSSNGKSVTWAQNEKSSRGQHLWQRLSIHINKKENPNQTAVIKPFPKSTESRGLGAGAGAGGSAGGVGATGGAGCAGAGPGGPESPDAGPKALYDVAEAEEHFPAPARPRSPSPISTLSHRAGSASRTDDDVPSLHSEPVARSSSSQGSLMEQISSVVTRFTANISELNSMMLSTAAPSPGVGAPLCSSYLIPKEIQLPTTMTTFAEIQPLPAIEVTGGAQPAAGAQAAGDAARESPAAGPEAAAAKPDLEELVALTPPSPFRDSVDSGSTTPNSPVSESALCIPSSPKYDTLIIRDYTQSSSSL
- EXPERIMENTAL DETAILS: Calcium mobilization assay in human mGlu5-HEK293A cells (NAM, EC80 glutamate)
- Assay type: cell-based
- MEASUREMENT SETUP: in μM; read-out: hmGlu5 IC50
READOUT LABEL: IC50 (µM)
The response must be a number in µM with no trailing unit.

Measured IC50, Cc1csc(NC(=O)c2cc(O[C@@H]3CCOC3)c3ccncc3n2)n1 [27gA] : 2.1

Measured IC50, O=C(Nc1cccc(F)n1)c1cc(O[C@@H]2CCOC2)c2sccc2n1 [19aC] : 1.1

Measured IC50, O=C(Nc1ccc(F)cn1)c1cc(O[C@@H]2CCOC2)cc(F)c1F [27cB] : 1.6

The origin of these recorded values is paper PMC12067350.
